Where do the numbers come from? From paper PMC8222333.

Target: d-enCas12a (Acidaminococcus sp., UniProt U2UMQ6 1-1307, E174R;S542R;K548R;D908A;E993A;D1235A)
Assay: Spec-seq (native PAGE EMSA with sequencing of bound and unbound); 25 mM Tris-HCl pH 7.4, 150 mM KCl, 5 mM MgCl2, 10% glycerol, 1 mM DTT, 40 ng/uL salmon sperm DNA; 400 nM Cas12a, 480 nM crRNA, 50 nM library, 37 C 1 h; native PAGE at room temperature; high values mean tight binding;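 further: relative affinity from the bound to unbound sequence frequency ratio in Spec-seq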
Settings: protein: recombinant
# binding signal per entry

>  <binder>
GATA (dsDNA) DNA 1: GCTATCTAGTGCTCAGTACGCACTGGATAAGGAAACTTCTGGCAGGACCAGGTCATGAGATCGGAAGAGCACACGTCTGAACTCCAGTCA DNA 2: TGACTGGAGTTCAGACGTGTGCTCTTCCGATCTCATGACCTGGTCCTGCCAGAAGTTTCCTTATCCAGTGCGTACTGAGCACTAGATAGC RNA: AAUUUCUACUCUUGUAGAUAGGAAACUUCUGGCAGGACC

>  <binding signal / lnKA>
-3.28

$$$$
>  <binder>
TAAT (dsDNA) DNA 1: GCTATCTAGTGCTCAGTACGCACTGTAATAGGAAACTTCTGGCAGGACCAGGTCATGAGATCGGAAGAGCACACGTCTGAACTCCAGTCA DNA 2: TGACTGGAGTTCAGACGTGTGCTCTTCCGATCTCATGACCTGGTCCTGCCAGAAGTTTCCTATTACAGTGCGTACTGAGCACTAGATAGC RNA: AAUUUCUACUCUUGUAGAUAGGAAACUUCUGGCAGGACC

>  <binding signal / lnKA>
-5.67

$$$$
>  <binder>
AGGC (dsDNA) DNA 1: GCTATCTAGTGCTCAGTACGCACTGAGGCAGGAAACTTCTGGCAGGACCAGGTCATGAGATCGGAAGAGCACACGTCTGAACTCCAGTCA DNA 2: TGACTGGAGTTCAGACGTGTGCTCTTCCGATCTCATGACCTGGTCCTGCCAGAAGTTTCCTGCCTCAGTGCGTACTGAGCACTAGATAGC RNA: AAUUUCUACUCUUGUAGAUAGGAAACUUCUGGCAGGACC

>  <binding signal / lnKA>
-5.79

$$$$
